assay: gradient 5% acetonitrile 3 min, to 50% in 2 min, to 85% in 15 min, held 3 min, 100 µL/min; conditions: column: Zorbax Extend-C18 2.1 x 50 mm; eluents: water / acetonitrile, 0.1% formic acid
reportedProperty: RP-LC retention time (s)
Give just the number in s; leave the unit off.

Here is how some molecules turned out for RP-LC retention time.
molecule: O=C(Nc1cc(-c2ccccn2)no1)c1ccc2c(c1)OCO2
RP-LC retention time [s]: 772
//
molecule: COc1ccc(OC)c(NC(=O)N2CCC(n3c(C)nc4cccnc43)CC2)c1
RP-LC retention time [s]: 631
//
molecule: COc1cccc(NC(=O)N2CCN(c3nc4ccccc4n3Cc3ccccc3)CC2)c1
RP-LC retention time [s]: 614
//
molecule: Cc1ccc(C)c(CNC(=O)C2CCN(CCc3cn(C)c4ncccc34)CC2)c1
RP-LC retention time [s]: 639

Continue with the next molecule.
Ask | Provide only the value of recorded RP-LC retention time for OC[C@H]1O[C@@H](n2cnc3c(NC4CCCCC4)ncnc32)C(O)[C@H]1O (stereo not given in full)
Reply | 583

###

assay: gradient 5% acetonitrile 3 min, to 50% in 2 min, to 85% in 15 min, held 3 min, 100 µL/min; details: column: Zorbax Extend-C18 2.1 x 50 mm; eluents: water / acetonitrile, 0.1% formic acid
A collection of molecules and their measured RP-LC retention time
Give just the number in s; leave the unit off.

Here is how some molecules turned out for RP-LC retention time.
molecule: COC(=O)c1ccc(Cl)cc1NC(=O)N1CCCn2nc(-c3ccncc3)cc2C1
numericValue: 715
--
molecule: O=C(C1CCCN(S(=O)(=O)c2cc(-c3noc(C4CCCC4)n3)cs2)C1)N1CCOCC1 (centres undefined)
numericValue: 966
--
molecule: CC(C)c1ccc(NC(=O)C2CCN(C(=O)C(C)(C)C)CC2)cc1
numericValue: 907
--
molecule: O=C(Nc1ccc(F)cc1)C1CCCN(c2nnc3ccc(Cl)cn23)C1 (centres undefined)
numericValue: 689
--
molecule: CC(=O)OCC1OC(N2CCC(=O)NC2=O)C(OC(C)=O)C1OC(C)=O (centres undefined)
numericValue: 1040
--
molecule: CCc1noc(-c2cnc3nc(C)ccc3c2Nc2ccc(OC)cc2)n1
numericValue: 764
--
molecule: O=C(CCC1CCCN(c2cc(NC3CC3)ncn2)C1)NCc1cccs1 (centres undefined)
numericValue: 640
--
molecule: O=C(COc1ccc(F)cc1)NCC(=O)N1CCN(c2ccccn2)CC1
numericValue: 609

Ask | Provide only the value of recorded RP-LC retention time for O=S(=O)(Cc1ccccc1F)N1CCC[C@H]1c1nc(-c2ccc(F)cc2)n[nH]1
Reply | 837

###

assay: gradient 5% acetonitrile 3 min, to 50% in 2 min, to 85% in 15 min, held 3 min, 100 µL/min; conditions: column: Zorbax Extend-C18 2.1 x 50 mm; eluents: water / acetonitrile, 0.1% formic acid
A collection of compounds and their measured RP-LC retention time
Give just the number in s; leave the unit off.

Here is how some compounds turned out for RP-LC retention time.
compound: Cn1nc(-c2nc(C3CC3)no2)c2c1CCN(C(=O)c1c(F)cccc1Cl)C2
valueUnits: s
RP-LC retention time: 837
--
compound: Cc1ccc(CNC(=O)Cn2c(N3CCOCC3)nc(C)cc2=O)cc1
valueUnits: s
RP-LC retention time: 647
--
compound: O=S(=O)(CCc1noc(C2COc3ccccc3O2)n1)c1ccccc1 (centres undefined)
valueUnits: s
RP-LC retention time: 927
--
compound: CCc1ccc(S(=O)(=O)N2CCCC2c2nc(-c3ccc(Cl)cc3)no2)cc1 (centres undefined)
valueUnits: s
RP-LC retention time: 1290
--
compound: CC(C)Cc1ccc(S(=O)(=O)N(CCN2CCCCC2C)CC(=O)N2CCNCC2)cc1 (centres undefined)
valueUnits: s
RP-LC retention time: 621

Ask | Provide only the value of recorded RP-LC retention time for Cc1cc(S(=O)(=O)Nc2ccc(Cn3cncn3)cc2)ccc1F
Reply | 743

Ask | Provide only the value of recorded RP-LC retention time for Cc1cc(C)c(NC(=O)C2CCN(S(=O)(=O)c3c(C)nn(-c4ccccc4)c3C)CC2)c(C)c1
Reply | 1010

Ask | Provide only the value of recorded RP-LC retention time for Cc1nn2c(CNS(=O)(=O)Cc3ccc(C)c(C)c3)c(-c3ccccc3)nc2s1
Reply | 974

Ask | Provide only the value of recorded RP-LC retention time for COc1ccc(CNC(=O)C2CCCN(c3ncnc4c3nc3n4CCCCC3)C2)cc1 (centres undefined)
Reply | 732
